# Target entity: C-C chemokine receptor type 7 (Homo sapiens)
# Sequence (P32248 whole entry): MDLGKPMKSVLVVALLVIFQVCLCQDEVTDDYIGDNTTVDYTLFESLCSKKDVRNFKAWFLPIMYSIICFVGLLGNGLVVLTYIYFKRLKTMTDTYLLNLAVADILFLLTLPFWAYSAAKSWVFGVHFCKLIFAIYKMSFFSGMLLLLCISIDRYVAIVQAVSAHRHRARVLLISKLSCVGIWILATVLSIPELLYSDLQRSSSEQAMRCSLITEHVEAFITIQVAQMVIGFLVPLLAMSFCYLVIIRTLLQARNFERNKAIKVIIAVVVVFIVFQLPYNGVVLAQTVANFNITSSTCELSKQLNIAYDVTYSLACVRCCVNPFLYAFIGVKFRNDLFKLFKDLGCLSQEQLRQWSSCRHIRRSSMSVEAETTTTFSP
# Assay details: Inhibition of human CCR7 expressed in CHO cells assessed as decrease in CCL19-induced reduction of forskolin-stimulated cAMP accumulation preincubated for 30 mins followed agonist addition measured after 30 mins by HTRF assay
Each entry below carries its reported IC50.

Lab note: C-C chemokine receptor type 7 (Homo sapiens) assay, enter IC50 for `N#Cc1ccc(NC2CCN(S(=O)(=O)c3ccc(-c4ccccc4)cc3)CC2)nc1` here
> 30 µM

Lab note: C-C chemokine receptor type 7 (Homo sapiens) assay, enter IC50 for `NC(=O)c1ccc(-c2ccc(S(=O)(=O)[C@H]3CC[C@H](Nc4ccc(C(F)(F)F)cn4)CC3)cc2)cc1` here
> 30 µM

Lab note: C-C chemokine receptor type 7 (Homo sapiens) assay, enter IC50 for `Cc1ccc(S(=O)(=O)N2CCC(Nc3ccc(C#N)cn3)CC2)cc1` here
> 30 µM

Lab note: C-C chemokine receptor type 7 (Homo sapiens) assay, enter IC50 for `NC(=O)c1ccc(-c2ccc(S(=O)(=O)[C@H]3CC[C@H](Nc4ccc(C(F)(F)F)cn4)CC3)cc2)cn1` here
18 µM

Lab note: C-C chemokine receptor type 7 (Homo sapiens) assay, enter IC50 for `N#Cc1ccc(-c2ccc(S(=O)(=O)[C@H]3CC[C@H](Nc4ccc(C(F)(F)F)cn4)CC3)cc2)cc1` here
> 30 µM

Lab note: C-C chemokine receptor type 7 (Homo sapiens) assay, enter IC50 for `NC(=O)c1cc(-c2ccc(S(=O)(=O)[C@H]3CC[C@H](Nc4ccc(C(F)(F)F)cn4)CC3)cc2)ccn1` here
9.4 µM

====

# Target entity: CYP2C9 (Homo sapiens, UniProt P11712)
# Sequence (P11712 whole entry): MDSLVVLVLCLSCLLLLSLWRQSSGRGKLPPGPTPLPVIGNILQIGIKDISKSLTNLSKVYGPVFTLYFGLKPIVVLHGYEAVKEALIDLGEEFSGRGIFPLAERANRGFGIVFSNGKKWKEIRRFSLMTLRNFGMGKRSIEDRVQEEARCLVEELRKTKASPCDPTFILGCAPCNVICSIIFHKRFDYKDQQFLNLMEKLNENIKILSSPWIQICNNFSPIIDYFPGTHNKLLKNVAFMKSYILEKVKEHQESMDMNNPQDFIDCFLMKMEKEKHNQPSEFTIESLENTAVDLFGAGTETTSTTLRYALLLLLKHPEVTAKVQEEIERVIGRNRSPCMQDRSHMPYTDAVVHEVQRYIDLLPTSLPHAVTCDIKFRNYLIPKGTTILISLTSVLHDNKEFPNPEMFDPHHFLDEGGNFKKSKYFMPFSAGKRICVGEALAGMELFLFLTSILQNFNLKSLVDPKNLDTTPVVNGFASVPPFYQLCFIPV
# Assay details: Inhibition of CYP2C9 (unknown origin) at 10 uM relative to control
# Type: ADME
Property: inhibition at 10 µM (%)
Report only the number, with the unit % understood.

Retrieve inhibition at 10 µM measured for `NC(=O)c1cc(-c2ccc(S(=O)(=O)[C@H]3CC[C@H](Nc4ccc(C(F)(F)F)cn4)CC3)cc2)ccn1` and print it.
51

====

# Assay details: AUC (0 to 24 hrs) in cynomolgus monkey at 1 mg/kg, po
# Format: ADME, organism-based, Macaca fascicularis
# Set-up: dose 1 mg/kg, time < 24 hr, route oral
# Measurement parameters: in vivo
Property: AUC(0-t) at 24 h (ng·h/mL)
Report only the number, with the unit ng·h/mL understood.

Retrieve AUC(0-t) at 24 h measured for `NC(=O)c1cc(-c2ccc(S(=O)(=O)[C@H]3CC[C@H](Nc4ccc(C(F)(F)F)cn4)CC3)cc2)ccn1` and print it.
10000

====

# Assay details: Oral bioavailability in cynomolgus monkey at 1 mg/kg
# Format: ADME, organism-based, Macaca fascicularis
# Measurement parameters: in vivo
Property: bioavailability (%)
Report only the number, with the unit % understood.

Retrieve bioavailability measured for `NC(=O)c1cc(-c2ccc(S(=O)(=O)[C@H]3CC[C@H](Nc4ccc(C(F)(F)F)cn4)CC3)cc2)ccn1` and print it.
65

====

# Assay details: AUC (0 to 24 hrs) in cynomolgus monkey at 0.1 mg/kg, iv
# Assay type: ADME, organism-based, Macaca fascicularis
# Parameters: dose 0.1 mg/kg, time < 24 hr, route intravenous
# Measurement parameters: in vivo
Property: AUC(0-t) at 24 h (ng·h/mL)
Report only the number, with the unit ng·h/mL understood.

Retrieve AUC(0-t) at 24 h measured for `NC(=O)c1cc(-c2ccc(S(=O)(=O)[C@H]3CC[C@H](Nc4ccc(C(F)(F)F)cn4)CC3)cc2)ccn1` and print it.
1550

Where do the numbers come from? From ChEMBL document CHEMBL4229521.
